test system: COLO 205 colon; test: NCI tumour cell line growth inhibition, 48 h

{"columns": ["compound", "TGI"],
 "data": [
  ["COc1cc(C2SC(N)=Nc3c2c(C)nn3C(=O)c2ccccc2O)ccc1O (stereo not given)", "> 10 µM"],
  ["O=C(O)c1cc2ccccc2c(N=Nc2cc(C(F)(F)F)ccc2Cl)c1O", "> 100 µM"],
  ["CCOC(=O)Cc1csc2[n+]1C(=O)/C(=C/c1cccc(OC)c1O)S2", "> 100 µM"],
  ["CCCCCCCCCc1cc[n+](CC(=O)c2ccc([N+](=O)[O-])cc2)cc1", "1.45 µM"],
  ["C#CCN(N=O)C(=O)NC(CCCNC(=O)OCc1ccccc1)C(=O)OCc1ccccc1 (stereo not given)", "> 100 µM"]
]}

* * *

test system: TK-10 renal; assay: NCI tumour cell line growth inhibition, 48 h; in the data active = GI50 below about 0.43 µM; inactive = the rest
Outcomes: active, inactive

{"columns": ["compound", "experimentalSystem", "discreteLabel"],
 "data": [
  ["CN1CCN(c2cc(C(=O)Nc3cc4cc(-c5cnn(C)c5)ccc4cn3)ccn2)CC1", "TK-10 renal", "active"],
  ["COC(=O)Nc1nc2ccc(C(=O)c3ccc(N(C)C4COC4)cc3)cc2[nH]1", "TK-10 renal", "inactive"],
  ["COc1cc2c3c(n(CCCNCCCNCCCNCCCN)c(=O)c2cc1OC)-c1cc2c(cc1C3=O)OCO2", "TK-10 renal", "inactive"],
  ["COc1ccc(/C=C2\\CC(C)CC3C2=NN(C(C)=O)C3c2ccc(OC)cc2)cc1 (stereo unspecified)", "TK-10 renal", "inactive"],
  ["N#CC(C#N)N=Nc1ccc(Br)cc1", "TK-10 renal", "inactive"],
  ["CN(C)c1ncc(-c2ccc(C(F)(F)F)cc2)c(NC2CCCCCC2)n1", "TK-10 renal", "inactive"]
]}

* * *

tested on: HL-60(TB) leukemia; experiment: NCI tumour cell line growth inhibition, 48 h
endpointName: TGI

{"columns": ["molecule", "resultValue"],
 "data": [
  ["Cc1nc([C@H]2CC[C@H]3[C@@H]4CCC5=CC(=O)CC[C@]5(C)[C@H]4CC[C@]23C)cs1", "> 100 µM"],
  ["Cc1ccc(S(=O)(=O)N2C[C@](O)(c3ccccc3)[C@H]2C)cc1", "> 100 µM"],
  ["CCCCCCCC/C=C\\CCCCCCCC(=O)O", "290 µM"],
  ["COc1cc(Nc2ncc(F)c(Nc3ccc4c(n3)NC(=O)C(C)(C)O4)n2)cc(OC)c1OC", "> 10 µM"],
  ["Cc1cc(S(=O)(=O)/N=C(\\[N-]S(=O)(=O)c2ccc(Cl)cc2)[n+]2ccc(N(C)C)cc2)c(S)cc1Cl", "> 100 µM"],
  ["O=C1O[C@H]2[C@H](O)[C@@H](OC(=O)c3cc(O)c(O)c4c3[C@@H]3C1=CC(=O)C(O)(O)C3(O)O4)[C@H](OC(=O)c1cc(O)c(O)c(O)c1)O[C@@H]2CO (stereo not given in full)", "> 100 µM"],
  ["Oc1ccccc1C=Nc1ccc(-c2nc3ccccc3[nH]2)cc1", "> 100 µM"],
  ["O=C(/C=N/O)Nc1cc(Cl)c(Cl)cc1Cl", "53.8 µM"],
  ["CCCCCCCCCCCCCCCC[N+](C)(CCO)Cc1cnc[nH]1 (stereo not given)", "2 µM"],
  ["COP(=O)(Cc1ccccc1)Cc1ccccc1", "> 100 µM"],
  ["Cc1ccc(C(=O)Nc2ccc(S(=O)(=O)O)c3cc(S(=O)(=O)O)cc(S(=O)(=O)O)c23)cc1NC(=S)Nc1cc(C(=O)Nc2ccc(S(=O)(=O)O)c3cc(S(=O)(=O)O)cc(S(=O)(=O)O)c23)ccc1C", "> 75 µM"],
  ["Cc1oc(N)c(S(=O)(=O)c2ccc(Cl)cc2)c1C", "> 100 µM"],
  ["C/C(=N\\Nc1nc2ccccc2n1C)c1cnccn1", "0.058 µM"],
  ["Cc1nc(-c2ccccc2)cc2c1c(=O)oc1ccccc12", "> 100 µM"],
  ["COc1cc(C(=O)O[C@@H]2[C@@H](OC(=O)c3cc(OC)c(OC)c(OC)c3)[C@@H](OC)O[C@@H]3CO[C@@H](c4ccccc4)O[C@@H]23)cc(OC)c1OC", "> 100 µM"]
]}

This collection of values is drawn from PubChem BioAssay (NCI).
